target_desc: GSK3b (GST-full length GSK3b) (Homo sapiens)
Construct: GST-full length GSK3b: [SignalChem G08-9G]; purchased SignalChem G08-9G
Sequence (P49841 whole entry): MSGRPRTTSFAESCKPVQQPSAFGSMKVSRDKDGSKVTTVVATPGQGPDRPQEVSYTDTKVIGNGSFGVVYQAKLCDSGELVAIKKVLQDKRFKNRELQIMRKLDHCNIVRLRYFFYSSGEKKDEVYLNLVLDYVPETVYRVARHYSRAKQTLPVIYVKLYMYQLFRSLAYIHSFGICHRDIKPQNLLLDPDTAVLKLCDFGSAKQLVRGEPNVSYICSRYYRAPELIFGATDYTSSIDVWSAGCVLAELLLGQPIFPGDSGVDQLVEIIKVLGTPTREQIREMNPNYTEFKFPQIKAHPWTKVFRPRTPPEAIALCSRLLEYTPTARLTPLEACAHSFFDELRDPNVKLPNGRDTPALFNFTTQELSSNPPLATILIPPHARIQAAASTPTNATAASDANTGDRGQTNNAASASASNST
assay_protocol: GSK3b TR-FRET kinase inhibition assay
Assay type: biochemical
experimental_setup: 10 μM ATP; read-out: GSK3b 10 μM ATP Average IC50
experimental_readout: IC50

Some molecules with known IC50 results, for comparison:
molecule="CCC1(c2ccccc2)C2=C(CC(C)(C)CC2=O)Nc2ncc(C(F)(F)F)cc21 (single isomer, unassigned) [Compound 133A]" target_desc="GSK3b (GST-full length GSK3b) (Homo sapiens)" value_measured="≤ 0.1 µM"
molecule="CC(C)(C)Cc1ccnc2c1C(C)(c1ccccc1)C1=C(CC(C)(C)CC1=O)N2 (single isomer, unassigned) [Compound 130A]" target_desc="GSK3b (GST-full length GSK3b) (Homo sapiens)" value_measured="≤ 0.1 µM"

Request: Give the measured IC50 of CCC1(c2cccc(-c3c(C)nn(C)c3C)c2)C2=C(CC(C)(C)CC2=O)Nc2ncccc21 (single isomer, unassigned) [Compound 150A] .
Result: ≤ 0.1 µM

Request: And CCC1(c2cccc(-c3ccnc4c3CCCC4)c2)C2=C(CC(C)(C)CC2=O)Nc2ncc(F)cc21 (single isomer, unassigned) [Compound 165A] ?
Result: ≤ 0.1 µM

Request: Proceed to CC(C)(C)Cc1cnc2c(c1)C(C)(c1ccccc1)C1=C(CC(C)(C)CC1=O)N2 (single isomer, unassigned) [Compound 129A]
Result: 5 to 20 µM

Request: What do we get for CC1(C)CC(=O)C2=C(C1)Nc1ncccc1C2(C)c1ccccc1 (single isomer, unassigned) [Compound 101B] ?
Result: 1 to 5 µM

Request: Now give it for CCC1(c2ccccc2)C2=C(CC(C)(C)CC2=O)Nc2ncc(F)cc21 (single isomer, unassigned) [Compound 114A] too.
Result: ≤ 0.1 µM

Request: Same thing, different molecule: CC(C)(C)Cc1ccnc2c1C(C)(c1ccccc1)C1=C(CC(C)(C)CC1=O)N2 (single isomer, unassigned) [Compound 130B]
Result: 0.1 to 1 µM

Request: Similarly, CC(C)(C)Cc1cnc2c(c1)C(C)(c1ccccc1)C1=C(CC(C)(C)CC1=O)N2 (single isomer, unassigned) [Compound 129B] ?
Result: 5 to 20 µM
